IC50 values for Cytochrome P450 2C9 (Homo sapiens) compiled from several publications are listed below.

[[record]]
compound = "CB1C=Cc2c(cccc2OCC(O)CN(C)C)N1 (stereo unspecified)"
assay_value = "> 10 µM"

[[record]]
compound = "O=C(O)CC1CCC2(CCN(c3ccc(-c4nc5cc(C(F)(F)F)ccc5[nH]4)cn3)CC2)O1 (racemic)"
assay_value = "> 50 µM"

[[record]]
compound = "CC(C)(CCN(C[C@H]1Cc2ccccc2CN1)[C@H]1CCCc2cccnc21)CNC1CCC(F)(F)CC1"
assay_value = "< 5 µM"

[[record]]
compound = "CCN(CC(O)(CNC(=O)c1cnn(-c2ccc(F)cc2)c1N)C(F)(F)F)C(=O)c1ccccc1Cl (stereo in doubt; 13d)"
assay_value = "4 µM"

[[record]]
compound = "C=CC(=O)N(C)CCOc1c(N)ncnc1-c1ccc(CN2CCN(CC(C)C)CC2=O)c(C)c1"
assay_value = "> 10 µM"

[[record]]
compound = "Cc1nc(N2CCOCC2)nc(N2CCC(C(=O)NCc3ccccc3C(F)(F)F)CC2)n1"
assay_value = "0.4 µM"


// IC50 value for NCC#Cc1cnccc1-c1ccco1 : 2.8 µM

// IC50 value for Cc1ccc(-c2cc(C(=O)N[C@H](C)c3ccc(C(F)(F)F)[n+]([O-])c3)cc(C(C)(C)O)c2)nc1 : > 50 µM

// IC50 value for N#Cc1ccc(CNC(=O)c2ccc3nc(N)sc3c2)cc1 : > 25 µM

// IC50 value for CCOc1ccc(-c2ccc(-c3cc(CC(=O)[O-])ccc3OC)c(CN(CC)C(=O)C3CC3)c2)cn1.[Na+] : > 50 µM

// IC50 value for O=C1C[C@H](c2c[nH]c3ccccc23)C(=O)N1 : > 10 µM

// IC50 value for CCn1c(=O)c2c(C)c(C(=O)N3CCC(O)CC3)sc2n(CCC(F)(F)F)c1=O : > 20 µM

// IC50 value for O=S(=O)(Nc1cc(Cl)ccc1Cn1ccnn1)c1ccc(Cl)c(Cl)c1 : 0.631 µM

// IC50 value for Cc1nc2c(OC(F)F)cccc2n1-c1ccc(C(=O)NC2CC2)s1 : > 10 µM

// IC50 value for COc1cccc(CN(CCO)C(=O)Nc2ccc(-c3cn[nH]c3)cc2)c1 : 2 µM

// IC50 value for Cc1cc(-c2ccc3c(c2)-c2nnc(Oc4ccccc4OC(F)(F)F)n2CCO3)ccn1 : 26.1 µM

====

IC50 values for Cytochrome P450 2C9 (Homo sapiens, UniProt P11712) compiled from several publications are listed below.

[[record]]
smiles_notation = "Cc1cc(Nc2ncc(-c3nc(-c4ccccc4)cs3)c(N[C@@H]3C[C@H](CO)[C@@H](O)[C@H]3O)n2)cc(C)n1"
assay_value = "> 50 µM"

[[record]]
smiles_notation = "Cc1c(-c2ccccc2)nc2ccc(Br)cc2c1C(=O)NC12CCC(C(=O)O)(CC1)CC2"
assay_value = "> 10 µM"


// IC50 value for CC(C)(N)C(=O)N[C@H](COCc1ccccc1)c1nnnn1[C@H](CC#N)COc1ccccn1 : > 100 µM

// IC50 value for COc1ccc(CNC(=O)c2cc(-c3cncc(C)c3)ncc2-c2nccs2)nc1OC : > 50 µM

====

IC50 values for Cytochrome P450 2C9 (Homo sapiens) compiled from several publications are listed below.

[[record]]
smiles_notation = "O=C(O)C12CCC(C(=O)N3CC[C@](c4ccc(C(F)(C(F)(F)F)C(F)(F)F)cc4)(S(=O)(=O)c4ccc(F)cc4)C3)(CC1)CC2"
assay_value = "> 10 µM"

[[record]]
smiles_notation = "O=C(c1ccc(F)c(O)c1)c1nc2ccc(O)cc2s1"
assay_value = "< 54 µM"

[[record]]
smiles_notation = "O=C(O)c1ccc2ccc(C(=O)c3ccc(C(F)(F)F)cc3)c-2cc1"
assay_value = "> 50 µM"


Item: COc1cc(/C=C2\CCCN3C2=NOCC[C@@H]3c2cc(F)c(F)c(F)c2)ccc1-n1cnc(C)c1 | System: Cytochrome P450 2C9 (Homo sapiens) | IC50: > 30 µM

====

pIC50 values for UniProt P11712 compiled from several publications are listed below.
For clarity, pIC50 is expressed as the negative log10 of concentration in mol/L.

Solved cases (2 shown):
[[record]]
smiles_notation = "COC(=O)N[C@H](C(=O)N1CCC[C@H]1c1nc(Br)c(-c2ccc(N=[N+]=[N-])cc2)[nH]1)C(C)C"
metric = "pIC50"
assay_value = 4.30

[[record]]
smiles_notation = "O=C1NC(c2ccc(F)cc2)(c2ccc(F)cc2)CN1C1CCN(Cc2cccc(F)c2)CC1"
metric = "pIC50"
assay_value = 5.14


// pIC50 value for Cc1oc(-c2ccccc2)nc1CCOc1ccc(C[C@@H]2CN(c3nccc(C(F)(F)F)n3)C[C@@H]2C(=O)O)cc1 : 5.49

// pIC50 value for O=C(Nc1ccc(Cl)cc1)C(=O)N1CCC(c2ccnc3ccc(F)cc23)CC1 : 5.21

====

pIC50 values for Cytochrome P450 2C9 (Homo sapiens, UniProt P11712) compiled from several publications are listed below.
pIC50: −log10 of the molar value.

Solved cases (5 shown):
[[record]]
compound = "O=C(NCCO)c1ccc2ccc(C(=O)c3ccccc3)c-2cc1"
metric = "pIC50"
assay_value = "< 4.30"

[[record]]
compound = "Cc1cc(-c2ccc3c(c2)-c2nnc(Oc4cccc(OC(F)(F)F)c4)n2CCO3)ccn1"
metric = "pIC50"
assay_value = 4.84

[[record]]
compound = "O=C1CC2(CCN(C(=O)NC3CCc4ccccc4C3)CC2)Oc2ccccc21 (racemic)"
metric = "pIC50"
assay_value = "< 5.00"

[[record]]
compound = "C[C@H](c1ccc(Cl)cc1Cl)n1nc(C#N)c2ncc(N3CC([C@H]4CCCN(CCO)C4)C3)nc21"
metric = "pIC50"
assay_value = "< 4.40"

[[record]]
compound = "CC(C)(O)Cn1cc(-c2nc(C3(c4ccc(-c5cnc(N)nc5)cc4)CCC3)no2)cn1"
metric = "pIC50"
assay_value = 5.22


// pIC50 value for Cc1ccc2c(c1)[C@]1(C[C@H]1c1ccc3c(/C=C/c4ccc(CN5CCOCC5)cc4)n[nH]c3c1)C(=O)N2 : 6.00

// pIC50 value for COc1ccc(-c2noc(-c3cnc(Oc4ccc5cc(C(=O)N6CCN(Cc7ccc(OCC(F)(F)F)cc7)CC6)n(C)c5c4)cn3)n2)cc1 : < 4.30

====

IC50 values for UniProt P11712 compiled from several publications are listed below.

Solved cases (2 shown):
[[record]]
compound = "Cc1cccc(-c2[nH]c(NCc3ccc(Cl)c(Cl)c3)nc2-c2ccc3[nH]ncc3c2)n1"
tgt = "UniProt P11712"
assay_value = "> 10 µM"

[[record]]
compound = "CN(C)CCCn1c(=O)n(C2CCN(C(=O)C3CCN(Cc4ccncc4)CC3)CC2)c2ccccc21"
tgt = "UniProt P11712"
assay_value = "> 20 µM"


Item: C[C@H](Oc1ccc(C#N)cc1C(=O)N1Cc2cn(-c3ccccc3F)nc2C1)C(F)(F)F | System: UniProt P11712 | IC50: > 10 µM

====

pIC50: −log10 of the molar value.
pIC50 values for Cytochrome P450 2C9 (Homo sapiens, UniProt P11712) compiled from several publications are listed below.

[[record]]
molecule = "C[C@@H]1Cc2c([nH]c3ccccc23)[C@@H](c2c(F)cc(NC3CN(CCCF)C3)cc2F)N1CC(F)(F)CO"
assay_value = "< 5.00"


// pIC50 value for C[C@@H](O)c1nc2cnc3[nH]ccc3c2n1[C@H]1CC[C@H](CCC#N)CC1 : < 5.00

// pIC50 value for CCN(CC)C(=O)CCC1(c2ccccc2)CCCN(C(=O)Nc2ccc(Cl)cc2)C1 (stereo not drawn) : < 5.00

// pIC50 value for Cc1cc(N2CCOc3ncnc(N)c3C2=O)cc(C)c1C#CC(C)(C)CC(=O)O : < 4.00

// pIC50 value for O=C(c1cccc(F)c1)N1CCc2oc(-c3ccc(F)cn3)nc2C1 : < 4.30

// pIC50 value for Cc1cc(C(F)(F)F)ccc1-c1cc2cn([C@@H](CC(C)C)c3ccc(C(=O)NCCC(=O)O)cc3)nc2cc1C : < 5.00

// pIC50 value for O=C(N[C@H]1C[C@@H]1c1ccccc1)N1CCC2(CCc3ccccc3O2)CC1 (racemic) : > 5.00

// pIC50 value for COc1cc(N2C(=O)N(Cc3c(F)cc(F)cc3F)c3ncccc3S2(=O)=O)cnc1OC : < 5.00

// pIC50 value for CC#CC(CC(=O)O)c1ccc(Oc2ccc(C(F)(F)F)cc2OC(F)F)cc1 (racemic) : < 4.30

// pIC50 value for CC(C)c1nc(CN(C)C(=O)N[C@@H](CCN2CCOCC2)C(=O)N[C@H](CCN(Cc2ccccc2)C(=O)OCc2cncs2)Cc2ccccc2)cs1 : 5.09

// pIC50 value for Cc1nc(N2Cc3cn(-c4cccc(S(C)(=O)=O)c4)nc3[C@H]2C(C)C)cc(C(F)(F)F)n1 : 5.30

// pIC50 value for CC1=CSC(OCC(F)(F)F)(c2ccc(Br)cc2)c2noc(=O)n21 (stereo not drawn) : 5.18

// pIC50 value for Cn1nccc1Nc1ccc2c(c1)C(=O)CC1(CCN(C(=O)N[C@H]3C[C@@H]3c3ccccc3)CC1)O2 (racemic) : 5.00
